Entries annotated with measured Ki
Target: UniProt P35372

CC[C@@H]1CN2CC[C@@]3(O)C(=Nc4cccc(-c5ccccc5)c43)[C@@H]2C[C@@H]1/C(=C\OC)C(=O)OC [Compound 4]	15 to 17 nM

Proceeding to the next compound to report its Ki.
# input GET /values?readout=Ki&system=UniProt P35372&item= CC[C@@H]1CN2CC[C@@]3(O)C(=Nc4cccc(C)c43)[C@@H]2C[C@@H]1/C(=C\OC)C(=O)OC [Compound 5]
# output 15 to 17 nM

###

Biological target: hMOR (Homo sapiens, UniProt P35372)
Sequence (P35372 whole entry): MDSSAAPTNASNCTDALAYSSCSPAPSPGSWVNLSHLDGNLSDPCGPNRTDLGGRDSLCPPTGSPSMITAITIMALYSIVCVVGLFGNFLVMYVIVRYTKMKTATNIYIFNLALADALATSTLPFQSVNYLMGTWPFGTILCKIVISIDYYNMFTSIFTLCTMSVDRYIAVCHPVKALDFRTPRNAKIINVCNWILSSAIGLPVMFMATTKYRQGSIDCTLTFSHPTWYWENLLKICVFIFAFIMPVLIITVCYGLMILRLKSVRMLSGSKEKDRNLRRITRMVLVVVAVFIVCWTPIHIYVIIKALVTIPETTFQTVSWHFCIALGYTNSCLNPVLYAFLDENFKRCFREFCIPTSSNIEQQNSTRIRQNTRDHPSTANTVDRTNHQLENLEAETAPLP
Assay: cell-based
observable: EC50
Write the numeric value and append its unit.

# input What value of EC50 on hMOR (Homo sapiens, UniProt P35372) does CC[C@@H]1CN2CC[C@@]3(O)C(=Nc4cccc(-c5ccoc5)c43)[C@@H]2C[C@@H]1/C(=C\OC)C(=O)OC [Compound 6 (SC13)] have?
# output 730 nM

###

Biological target: murine MOR (Mus musculus)
Sequence (P42866 whole entry): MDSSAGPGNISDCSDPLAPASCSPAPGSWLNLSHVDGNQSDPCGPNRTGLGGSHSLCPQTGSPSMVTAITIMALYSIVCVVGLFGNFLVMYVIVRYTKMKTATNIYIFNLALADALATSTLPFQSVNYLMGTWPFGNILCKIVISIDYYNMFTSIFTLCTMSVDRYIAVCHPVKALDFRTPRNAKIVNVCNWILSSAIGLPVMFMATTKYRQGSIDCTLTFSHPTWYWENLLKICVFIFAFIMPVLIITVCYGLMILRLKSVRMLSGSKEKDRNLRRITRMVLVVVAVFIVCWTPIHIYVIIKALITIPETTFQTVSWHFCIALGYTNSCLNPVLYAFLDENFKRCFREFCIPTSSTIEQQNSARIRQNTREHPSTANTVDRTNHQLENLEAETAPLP
Test: BRET-based Nb33 recruitment assay, mMOR
observable: pEC50
# pEC50 is unitless: minus log10 of the molar concentration; print number only

# input Given CC[C@@H]1CN2CC[C@@]3(O)C(=Nc4cccc(-c5ccoc5)c43)[C@@H]2C[C@@H]1/C(=C\OC)C(=O)OC [Compound 6 (SC13)] , state its recorded pEC50.
# output 7.92

###

Molecular target: hMOR (Gi-1) (Homo sapiens, UniProt P35372)
Sequence (P35372 whole entry): as the sequence (P35372 whole entry) above
Assay: cell-based
observable: EC50 (nM)
Quick note: give the figure in nM, leave out the unit.

# input Quick check: EC50 of CC[C@@H]1CN2CC[C@@]3(O)C(=Nc4cccc(-c5ccoc5)c43)[C@@H]2C[C@@H]1/C(=C\OC)C(=O)OC [Compound 6 (SC13)] ?
# output 145
